Answer each item with its documented IC50, luciferase bioassay, 0.5 nM GDF8.
Biological target: T1, Human GDF8 homodimer (mature human Growth and Differentiation Factor-8) (human, UniProt O14793 267-375)
T1 sequence: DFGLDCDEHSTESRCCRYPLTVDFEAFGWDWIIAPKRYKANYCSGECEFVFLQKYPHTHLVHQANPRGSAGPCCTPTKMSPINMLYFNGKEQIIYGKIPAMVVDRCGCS
Assay: cell-based or functional assay
State the answer as a number, implicitly in nM.

Enquiry: I am curious: what IC50, luciferase bioassay, 0.5 nM GDF8 value has been reported for 8D12 (antibody, V domains shown, also called antibody 8D12; 8D12 Antibody) VH: QVQLVESGGGVVQPGRSLRLSCAASGFTFSRYGIHWVRQAPGKGLEWVAVISYDGSDEYYVDSVKGRFSISRDNSKNTLYLQMNSLRPADSAVYYCVKGDLELGFDYWGQGTLVTVSS VL: DIVMTQAAPSIPVIPGESVSMSCRSSKSLLYSNGHTYVYWFVQRPGQSPQLLIYRMSNLASGVPDRFSGSGSGTAFTLRISRVEAEDVGVYYCMQNLEFPLTFGAGTKLELK ?
Return: 3.11

Enquiry: Can you share its IC50, luciferase bioassay, 0.5 nM GDF8? I mean this binder: H4H1669P (antibody, V domains shown, captured by anti-hFc, so human Fc) VH: QVQLVESGGGVVQPGKSLRLSCAASGFTFSSFGMHWVRQAPGKGLEWVAVIGYDGGNEYYADSVKGRFTISRDNSKNTLNLQMSSLRAEDTAVYYCSTISHYDILSGMDVWGRGTTVTVSS VL: DIQMTQSPSSVSASVGDRVTITCRASQGISNWLAWYQQKPGKAPKLLIFAASSLQSGVPSRFSGSASGTDFTLTINSLQPEDFATYYCQQANSFPLTFGGGTKVEIKR
Return: 0.9

Enquiry: Give its IC50, luciferase bioassay, 0.5 nM GDF8 value. Item: 1A2 (antibody, V domains shown, also called 1A2 mAb) VH: EVQLLESGGGLVQPGGSLRLSCAASGFTSITYAMSWVRQAPGKGLEWVSAISVSGTNTYYADSVKGRFTISRDKSKNMLYLQMNSLRAEDTAVYYCAKDLLHNWKYGTFDIWGQGTMVTVSS VL: EIVMTQSPATLSVSPGERATLSCRASQSVDSNLVWYQQKPGQVPRLLIYGASTRATGIPARFSGSGSGTEFTLTISSLQSEDFAVYYCQQYNKWPLTFGGGTKVEIK
Return: 0.196

Enquiry: Item H4H1657N2 (antibody, V domains shown, captured by anti-hFc, so human Fc) VH: EVQVLESGGDLVQPGGSLRLSCAASGFTFSAYAMTWVRQAPGKGLEWVSAISGSGGSAYYADSVKGRFTISRDNSKNTVYLQMNSLRAEDTAVYYCAKDGAWKMSGLDVWGQGTTVIVSS VL: DIQMTQSPASLSASVGDRVTITCRASQDISDYLAWYQQKPGKIPRLLIYTTSTLQSGVPSRFRGSGSGTDFTLTISSLQPEDVATYYCQKYDSAPLTFGGGTKVEIK has what recorded IC50, luciferase bioassay, 0.5 nM GDF8?
Return: 0.78
